# system_under_test: DNA dC->dU-editing enzyme APOBEC-3G (Homo sapiens) (UniProt Q9HC16)
# Sequence (Q9HC16 whole entry, looked up): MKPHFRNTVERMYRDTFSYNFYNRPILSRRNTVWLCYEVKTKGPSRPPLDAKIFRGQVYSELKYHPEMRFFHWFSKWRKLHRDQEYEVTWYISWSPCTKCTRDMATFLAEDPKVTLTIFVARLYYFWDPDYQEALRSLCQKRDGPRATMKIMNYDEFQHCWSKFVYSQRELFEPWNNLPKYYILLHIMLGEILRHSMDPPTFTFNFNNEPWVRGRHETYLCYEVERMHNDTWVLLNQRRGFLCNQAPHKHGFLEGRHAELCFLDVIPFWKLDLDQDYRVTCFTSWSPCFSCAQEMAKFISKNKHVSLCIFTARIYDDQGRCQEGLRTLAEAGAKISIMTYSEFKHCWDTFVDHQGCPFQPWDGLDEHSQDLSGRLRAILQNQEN
# protocol: qHTS for inhibitors of Vif-A3G interactions: Cherry picks counterscreen;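 also: potency is read from the fitted curve at half-maximal effect; hits raise yellow fluorescence by blocking Vif-driven A3G-eYFP degradation; nearly all actives have a fitted effect of over 70% in size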
# run_conditions: HeLa A3G-eYFP + Vif (tagged APOBEC3G with the HIV-1 protein that degrades it), eYFP fluorescence, 24 h
Screen size: about 2,100 compounds; about 1,100 (52%) were called active. Not shown: some 27% with an inconclusive outcome. The set was probably picked from earlier hits. The list shows a part of the results.
Field: Potency. Provide a value for each of the compounds that follow.

Input line: # query: Potency of entry `Cc1nnc(N2C(=O)c3cccc4c([N+](=O)[O-])ccc(c34)C2=O)s1`
Output line: 20.6 µM (active)

Input line: So what does the record say about Potency for CCOC(=O)N1CCc2c(sc3c2C(=O)NC(c2ccc(N(C)C)cc2)N3)C1 (configuration not stated) ?
Output line: 4.11 µM (active)

Input line: Quick check: Potency of `COc1ccc(Cn2c(=O)cc(N)n(-c3ccccc3C)c2=O)cc1` ?
Output line: 11.2 µM (active)

Input line: What value of Potency has been reported for the following compound? `N=C1S/C(=C\c2ccc(-c3cccc(Cl)c3)o2)C(=O)N1c1nccs1`
Output line: 16.4 µM (active)

Input line: Any idea what Potency was measured for COc1cc(C2C3=C(COC3=O)Oc3cc4c(cc32)OCO4)ccc1OC(C)=O (configuration not stated) ?
Output line: 1.77 µM (active)

Input line: Requested read-out: Potency. Entry: Cc1ccc(C2NC(=O)c3ccccc3N2)s1 (configuration not stated)
Output line: 12.5 µM (active)

Input line: Which Potency reading was recorded for the compound `CCOc1ccccc1Nc1nnc(-c2cc3cc(OC)ccc3oc2=O)s1` ?
Output line: 5.17 µM (active)

Input line: Please give the measured Potency for this compound: `O=C(N/N=C/c1ccc2c(c1)OCO2)c1cc(-c2ccco2)nc2ccccc12`
Output line: 9.94 µM (active)

Input line: Value lookup for Potency; key = `O=C(NCc1ccco1)c1cccc2c1C(=O)c1ccc(N3CCC(Cc4ccccc4)CC3)cc1S2(=O)=O`
Output line: 23.1 µM (active)

Input line: Need Potency, item `CC(=O)N/N=C/c1cc(C(C)(C)C)cc(/C=N/NC(C)=O)c1O`
Output line: 20.6 µM (active)

Input line: May I ask what Potency has been recorded for Cc1ccc(C)c(C2NC(=O)c3ccccc3N2)c1 (configuration not stated) ?
Output line: 7.9 µM (active)

Input line: Fill in: Potency of `CCn1c(SCC(=O)c2c[nH]c3ccccc23)nnc1-c1cccs1` is ___
Output line: 18.4 µM (active)

Input line: What value of Potency has been recorded for this entry: `c1ccc2c(c1)Cc1cc3ccccc3nc1-2`
Output line: 1.64 µM (active)

Input line: Report Potency for `CC(=O)Oc1cccc(N2C(=O)c3cccc4c([N+](=O)[O-])ccc(c34)C2=O)c1` please.
Output line: 15.8 µM (active)

Input line: Looking for the measured Potency of `O=C1/C(=C/c2c[nH]c3ccccc23)CCC/C1=C\c1c[nH]c2ccccc12` , can you help?
Output line: 20.6 µM (active)

Input line: Give its Potency value. Item: `CCOC(=O)c1ccc(NC(=O)CSc2nc(-c3ccc(F)cc3)cc(C(F)(F)F)c2C#N)cc1`
Output line: 9.2 µM (active)

Input line: Query: Potency; subject: `Nc1ncnc2c1ncn2[C@@H]1O[C@H](CNCc2ccc(OCc3ccccc3)cc2)[C@@H](O)[C@H]1O`
Output line: 12.5 µM (active)

Input line: What does the record list as Potency for COc1ccc2ccccc2c1C1NC(=O)c2ccccc2N1 (configuration not stated) ?
Output line: 4.98 µM (active)

Input line: Look at this compound and give its reported Potency. `Cc1cc(C(=O)N/N=C/c2ccc3c(c2)OCO3)c2ccccc2n1`
Output line: 7.9 µM (active)

Input line: State the recorded Potency for this entry: `Cc1cccc(C)c1OCC(=O)N/N=C/c1ccc2c(c1)OCO2`
Output line: 6.27 µM (active)

Input line: Entry N#CCSc1ccccc1NC(=O)CN1C(=O)C2CC=CCC2C1=O (configuration not stated) has what Potency?
Output line: 11.2 µM (active)

Input line: Which Potency value is on record for CCOc1ccccc1C1NC(=O)c2ccccc2N1 (configuration not stated) ?
Output line: 2.5 µM (active)
